- assay_protocol: gradient 5% acetonitrile 3 min, to 50% in 2 min, to 85% in 15 min, held 3 min, 100 µL/min
- recorded_conditions: column: Zorbax Extend-C18 2.1 x 50 mm; eluents: water / acetonitrile, 0.1% formic acid
recorded_metric: RP-LC retention time (s)
Write the value in s as a bare number.

# example entries with known answers
- molecule: "O=C(Cn1ccn2nc(-c3ccccc3)c(CO)c2c1=O)Nc1ccc2c(c1)OCCO2"
  reported_value: 759
- molecule: "COc1cccc(CNC(=O)C2CCCN(c3cc(=O)n(C)c(=O)n3C)C2)c1 (configuration not stated)"
  reported_value: 670
- molecule: "CCN(C(=O)C1CCCN1S(=O)(=O)c1cc2c(cc1C)NC(=O)CO2)c1cccc(C)c1 (configuration not stated)"
  reported_value: 818
- molecule: "CC(=O)Nc1cc(C(=O)NCCN(C)C)ccc1Sc1ccc(Cl)cc1"
  reported_value: 589
- molecule: "CCOc1ccc(NC(=O)N2CCC3(CC2)NC(=O)c2ccc(F)cc2N3C)cc1"
  reported_value: 777

// next item, RP-LC retention time requested
Recorded RP-LC retention time (molecule "CC(=O)NCc1ccc(-c2noc(-c3cccc(Br)c3)n2)s1" ): 922
